Consider the following molecules; for each one, report its IC50.
Target: human FAP (Homo sapiens)
Sequence (Q12884 26-760): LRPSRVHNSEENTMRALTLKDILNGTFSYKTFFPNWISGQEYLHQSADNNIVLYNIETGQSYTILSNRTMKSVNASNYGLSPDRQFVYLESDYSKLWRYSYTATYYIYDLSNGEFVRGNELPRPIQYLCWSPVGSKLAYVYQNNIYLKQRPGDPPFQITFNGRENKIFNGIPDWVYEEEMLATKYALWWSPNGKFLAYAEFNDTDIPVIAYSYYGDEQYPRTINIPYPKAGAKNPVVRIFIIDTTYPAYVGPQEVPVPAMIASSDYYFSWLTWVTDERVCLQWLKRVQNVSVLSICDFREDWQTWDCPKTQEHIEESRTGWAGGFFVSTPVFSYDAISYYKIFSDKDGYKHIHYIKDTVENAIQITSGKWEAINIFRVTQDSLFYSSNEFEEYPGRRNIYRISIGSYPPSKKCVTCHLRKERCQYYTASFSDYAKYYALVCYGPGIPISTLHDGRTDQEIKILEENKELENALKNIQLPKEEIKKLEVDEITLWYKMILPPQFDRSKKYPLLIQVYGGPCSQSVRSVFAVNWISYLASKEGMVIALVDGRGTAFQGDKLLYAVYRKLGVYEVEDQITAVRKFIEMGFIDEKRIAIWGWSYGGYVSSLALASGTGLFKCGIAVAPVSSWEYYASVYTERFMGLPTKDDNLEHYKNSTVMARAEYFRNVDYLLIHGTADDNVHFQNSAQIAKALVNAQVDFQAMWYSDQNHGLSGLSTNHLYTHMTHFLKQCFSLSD
Structures can show the parent of a compound that is named as a salt. Starred links: 1 amine or outer side, 2 acyl side, 3 side chain; linkers in the order of their positions; H or OH if unused. Non-standard residues stand in square brackets, D forms with d. Residues, ends and D or L forms follow the SMILES beside them. Groups on a side chain read outwards from the residue. *: point of attachment. Phe(4-CH2NH2) = NCc1ccc(C[C@H](N)C(=O)O)cc1; Piperazinyl(4-CH2COOH) = O=C(O)CN1CCN(*)CC1; AEF = NCCOc1ccc(C[C@H](N)C(=O)O)cc1; Nicotinoyl(6-F) = O=C(c1ccc(F)nc1)*; Hyp = O=C(O)[C@@H]1C[C@@H](O)CN1; NMeF = CN[C@@H](Cc1ccccc1)C(=O)O; dHyp = O=C(O)[C@H]1C[C@H](O)CN1; Aoc(2) = CCCCCC[C@H](N)C(=O)O; Ahp(2) = CCCCC[C@H](N)C(=O)O; Cba = N[C@@H](CC1CCC1)C(=O)O; hSer = N[C@@H](CCO)C(=O)O; AEEA = NCCOCCOCC(=O)O; CO = O=C([*:1])[*:2]
// note: answer is a bare numeric in nM

Record CCCCCC[C@@H]1NC(=O)[C@H](Cc2ccc(CNC(=O)COCCOCCNC(=O)c3ccc(F)nc3)cc2)NC(=O)[C@H](Cc2ccccc2)N(C)C(=O)CNC(=O)CNC(=O)[C@H]2CCCN2C(=O)[C@H](CC(=O)O)NC(=O)[C@H](CCCCNC(=O)N2CCN(CC(=O)O)CC2)NC(=O)CNC(=O)[C@H](Cc2c[nH]c3ccccc23)NC1=O [Example C55] (cyclo([Aoc(2)]WGK([CO-Piperazinyl(4-CH2COOH)])D[dP]GG[NMeF][Phe(4-CH2NH2)]([AEEA-Nicotinoyl(6-F)]))) , field IC50: 0.006

Record CCCCC[C@@H]1NC(=O)[C@H](Cc2ccc(CNC(C)=O)cc2)NC(=O)[C@H](Cc2ccccc2)N(C)C(=O)CNC(=O)CNC(=O)[C@H]2CCCN2C(=O)[C@H](CC(=O)O)NC(=O)[C@H](Cc2ccc(O)cc2)NC(=O)CNC(=O)[C@H](Cc2c[nH]c3ccccc23)NC1=O [Example A28] (cyclo(GG[NMeF][Phe(4-CH2NH2)](Ac)[Ahp(2)]WGYD[dP])) , field IC50: 0.063

Record CCCCC[C@@H]1NC(=O)[C@H](Cc2ccc(OCCN)cc2)NC(=O)[C@H](Cc2ccccc2)N(C)C(=O)CNC(=O)[C@H](CCO)NC(=O)[C@H]2CCCN2C(=O)[C@H](CC(=O)O)NC(=O)[C@H](Cc2ccc(O)cc2)NC(=O)CNC(=O)[C@H](Cc2c[nH]c3ccccc23)NC1=O [Example A47, TFA salt] (cyclo([AEF][Ahp(2)]WGYD[dP][hSer]G[NMeF])) , field IC50: 0.181

Record CCCCC[C@@H]1NC(=O)[C@H](Cc2ccc(O)cc2)NC(=O)[C@H](Cc2ccccc2)N(C)C(=O)CNC(=O)[C@H](CCCCN)NC(=O)[C@H]2C[C@H](O)CN2C(=O)[C@H](CC(=O)O)NC(=O)[C@H](Cc2ccc(O)cc2)NC(=O)CNC(=O)[C@H](Cc2c[nH]c3ccccc23)NC1=O [Example A41, TFA salt] (cyclo([Ahp(2)]WGYD[dHyp]KG[NMeF]Y)) , field IC50: 2.2

Record CCCCC[C@@H]1NC(=O)[C@H](Cc2ccc(O)cc2)NC(=O)[C@H](CC2CCC2)NC(=O)CNC(=O)CNC(=O)[C@H]2CCCN2C(=O)[C@H](CC(=O)O)NC(=O)[C@H](Cc2ccc(O)cc2)NC(=O)CNC(=O)[C@H](Cc2c[nH]c3ccccc23)NC1=O [Example A60] (cyclo([Ahp(2)]WGYD[dP]GG[Cba]Y)) , field IC50: 0.041

Record CCCCC[C@@H]1NC(=O)[C@H](Cc2ccc(OCCN)cc2)NC(=O)[C@H](Cc2ccccc2)N(C)C(=O)CNC(=O)[C@@H]2C[C@@H](O)CN2C(=O)[C@H]2CCCN2C(=O)[C@H](CC(=O)O)NC(=O)[C@H](Cc2ccc(O)cc2)NC(=O)CNC(=O)[C@H](Cc2c[nH]c3ccccc23)NC1=O [Example A33] (cyclo([AEF][Ahp(2)]WGYD[dP][Hyp]G[NMeF])) , field IC50: 1

---

target: mouse FAP (Mus musculus, UniProt P97321); construct: biotinylated His, Avi tag, mouse FAP (26-761, FAP-M82Q5); His; Avi tag (biotinylated); purchased AcroBiosystems FAP-M82Q5; assay: Surface plasmon resonance (SPR) for peptide affinity, mouse FAP; assay type: binding
Sequence (P97321 26-761): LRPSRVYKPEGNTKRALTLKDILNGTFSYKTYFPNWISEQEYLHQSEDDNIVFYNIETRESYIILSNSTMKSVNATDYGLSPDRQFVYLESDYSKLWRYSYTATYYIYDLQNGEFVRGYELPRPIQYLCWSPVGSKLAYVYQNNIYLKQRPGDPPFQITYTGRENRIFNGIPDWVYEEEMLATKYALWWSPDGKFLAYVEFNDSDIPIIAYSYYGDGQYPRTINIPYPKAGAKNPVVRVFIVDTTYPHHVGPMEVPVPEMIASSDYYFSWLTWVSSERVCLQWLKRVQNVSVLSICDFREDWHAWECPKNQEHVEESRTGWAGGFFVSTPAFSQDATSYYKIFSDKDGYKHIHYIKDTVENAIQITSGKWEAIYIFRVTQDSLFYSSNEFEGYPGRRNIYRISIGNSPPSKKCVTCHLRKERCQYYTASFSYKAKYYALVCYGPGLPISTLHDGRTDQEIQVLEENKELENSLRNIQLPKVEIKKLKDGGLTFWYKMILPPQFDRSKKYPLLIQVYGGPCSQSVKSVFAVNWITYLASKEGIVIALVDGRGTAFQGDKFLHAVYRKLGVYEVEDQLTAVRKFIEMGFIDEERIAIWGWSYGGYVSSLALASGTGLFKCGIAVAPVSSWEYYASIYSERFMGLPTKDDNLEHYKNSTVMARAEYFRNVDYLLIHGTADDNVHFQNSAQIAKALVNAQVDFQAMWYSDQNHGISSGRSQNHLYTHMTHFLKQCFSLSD
pKd: −log10 of the molar value. Counter-ions that a name gives are not always drawn. Starred links: 1 amine or outer side, 2 acyl side, 3 side chain; linkers in the order of their positions; H or OH if unused. Non-standard residues stand in square brackets, D forms with d. Residues, ends and D or L forms follow the SMILES beside them. Groups on a side chain read outwards from the residue. *: point of attachment. DOTA = O=C(O)CN1CCN(CC(=O)O)CCN(CC(=O)*)CCN(CC(=O)O)CC1; Nicotinoyl(6-NMe3+) = C[N+](C)(C)c1ccc(C(=O)*)cn1; Trp(7-F) = N[C@@H](Cc1c[nH]c2c(F)cccc12)C(=O)O; Phe(4-CH2NH2) = NCc1ccc(C[C@H](N)C(=O)O)cc1; Piperazinyl(4-CH2COOH) = O=C(O)CN1CCN(*)CC1; NMeCba = CN[C@@H](CC1CCC1)C(=O)O; NMeF = CN[C@@H](Cc1ccccc1)C(=O)O; Aoc(2) = CCCCCC[C@H](N)C(=O)O; Ahp(2) = CCCCC[C@H](N)C(=O)O; AEEA = NCCOCCOCC(=O)O; CO = O=C([*:1])[*:2]
Response key: true means pKd >= 10; false means pKd < 10.

input: Test whether the molecule CCCCCC[C@@H]1NC(=O)[C@H](Cc2ccc(CNC(=O)COCCOCCNC(=O)CCC(C(=O)O)N3CCN(CC(=O)O)CCN(CC(=O)O)CC3)cc2)NC(=O)[C@H](Cc2ccccc2)N(C)C(=O)CNC(=O)CNC(=O)[C@H]2CCCN2C(=O)[C@H](CC(=O)O)NC(=O)[C@H](CCCCNC(=O)N2CCN(CC(=O)O)CC2)NC(=O)CNC(=O)[C@H](Cc2c[nH]c3ccccc23)NC1=O (stereo partly shown) records pKd of 10 or higher.
output: true

input: Test whether the molecule CCCCCC[C@@H]1NC(=O)[C@H](Cc2ccc(CNC(=O)COCCOCCNC(=O)c3ccc([N+](C)(C)C)nc3)cc2)NC(=O)[C@H](Cc2ccccc2)N(C)C(=O)CNC(=O)CNC(=O)[C@H]2CCCN2C(=O)[C@H](CC(=O)O)NC(=O)[C@H](CCCCNC(=O)N2CCN(CC(=O)O)CC2)NC(=O)CNC(=O)[C@H](Cc2c[nH]c3ccccc23)NC1=O [Example C57] (cyclo([Aoc(2)]WGK([CO-Piperazinyl(4-CH2COOH)])D[dP]GG[NMeF][Phe(4-CH2NH2)]([AEEA-Nicotinoyl(6-NMe3+)]))) records pKd of 10 or higher.
output: true

input: Test whether the molecule CCCCC[C@@H]1NC(=O)[C@H](Cc2ccc(CNC(=O)COCCOCCNC(=O)CN3CCN(CC(=O)O)CCN(CC(=O)O)CCN(CC(=O)O)CC3)cc2)NC(=O)[C@H](Cc2ccccc2)N(C)C(=O)CNC(=O)CNC(=O)[C@H]2CCCN2C(=O)[C@H](CC(=O)O)NC(=O)[C@H](Cc2ccc(O)cc2)NC(=O)CNC(=O)[C@H](Cc2c[nH]c3ccccc23)NC1=O [Example B16, TFA salt] (cyclo([Ahp(2)]WGYD[dP]GG[NMeF][Phe(4-CH2NH2)]([AEEA-DOTA]))) records pKd of 10 or higher.
output: true

input: Test whether the molecule CCCCC[C@@H]1NC(=O)[C@H](Cc2ccc(O)cc2)NC(=O)[C@H](Cc2ccccc2)N(C)C(=O)CNC(=O)[C@H](CO)NC(=O)[C@H]2CCCN2C(=O)[C@H](CC(=O)O)NC(=O)[C@H](Cc2ccc(O)cc2)NC(=O)CNC(=O)[C@H](Cc2c[nH]c3ccccc23)NC1=O [Example A19] (cyclo([Ahp(2)]WGYD[dP]SG[NMeF]Y)) records pKd of 10 or higher.
output: false

input: Test whether the molecule CCCCC[C@@H]1NC(=O)[C@H](Cc2ccc(O)cc2)NC(=O)[C@H](CC2CCC2)N(C)C(=O)CNC(=O)CNC(=O)[C@H]2CCCN2C(=O)[C@H](CC(=O)O)NC(=O)[C@H](Cc2ccc(O)cc2)NC(=O)CNC(=O)[C@H](Cc2c[nH]c3ccccc23)NC1=O [Example A62] (cyclo([Ahp(2)]WGYD[dP]GG[NMeCba]Y)) records pKd of 10 or higher.
output: false

input: Test whether the molecule CCCCC[C@@H]1NC(=O)[C@H](Cc2ccc(O)cc2)NC(=O)[C@H](Cc2ccccc2)N(C)C(=O)CNC(=O)CNC(=O)[C@H]2CCCN2C(=O)[C@H](C)NC(=O)[C@H](Cc2ccc(O)cc2)NC(=O)CNC(=O)[C@H](Cc2c[nH]c3ccccc23)NC1=O [Example A56] (cyclo(A[dP]GG[NMeF]Y[Ahp(2)]WGY)) records pKd of 10 or higher.
output: false

input: Test whether the molecule CCCCC[C@@H]1NC(=O)[C@H](Cc2ccc(O)cc2)NC(=O)[C@H](Cc2ccccc2)N(C)C(=O)CNC(=O)[C@H](CCCCN)NC(=O)[C@H]2CCCN2C(=O)[C@H](CC(=O)O)NC(=O)[C@H](Cc2ccc(O)cc2)NC(=O)CNC(=O)[C@H](Cc2c[nH]c3c(F)cccc23)NC1=O [Example A23, TFA salt] (cyclo([Ahp(2)][Trp(7-F)]GYD[dP]KG[NMeF]Y)) records pKd of 10 or higher.
output: false

Recorded values, source patent US20250090699A1.
